Cited source: PubChem BioAssay AID2058

Target: G-protein coupled receptor 35 (Homo sapiens)
Assay: inhibition of zaprinast-stimulated GPR35 beta-arrestin translocation – imaging, U2OS, beta-arrestin-GFP, zaprinast agonist, primary screen (AID 2058)
Settings: zaprinast antagonism, at 10 µM, stronger effect = higher value
Among all 290,000 compounds or so, about 150 (0.052%) were called active. The entries come from a sample that favours actives as a whole. Entries with a potency or affinity are not part of this list.
observable: inhibition (%)
Give just the numeric value; % need not be written.

Recorded results for 8 compounds are shown here.
* O=C(NCc1nnc(SCc2ccccc2)n1-c1ccccc1)C12CC3CC(CC(C3)C1)C2 | -5.7
* COCCN(CC(=O)NC1CCCCC1)C(=O)/C=C/C(=O)c1ccc(OC)cc1O | 15.7
* COc1ccc(C(=O)/C=C/C(=O)N(CC(=O)NC2CCCCC2)CC2CCCO2)c(O)c1 (stereo unspecified) | 69.1
* COc1ccc2cc3cc(C(=O)N4CCN(c5ccccc5)CC4)oc3nc2c1 | 6
* COc1cccc(/C=C2\SC(=S)N(CCC(=O)Nc3ccc(O)cc3)C2=O)c1 | -4.8
* O=C(CCN1C(=O)S/C(=C/c2ccccc2)C1=O)Nc1ccc(C(=O)O)c(O)c1 | 13.4
* O=C(/C=C/c1c[nH]c2ccccc12)c1ccccc1 | -6.3
* O=C(CCN1C(=O)/C(=C/c2ccc3c(c2)OCO3)SC1=S)Nc1ccc(C(=O)O)cc1 | 0.4

Now look at this entry.
For this compound ( "O=C(CCCN1C(=O)/C(=C\c2ccccc2)SC1=S)Nc1ccc(O)cc1" ), measured inhibition is 23.5

###

Molecular target: G-protein coupled receptor 35 (Homo sapiens) (UniProt Q9HC97)
Sequence (Q9HC97 whole entry, looked up): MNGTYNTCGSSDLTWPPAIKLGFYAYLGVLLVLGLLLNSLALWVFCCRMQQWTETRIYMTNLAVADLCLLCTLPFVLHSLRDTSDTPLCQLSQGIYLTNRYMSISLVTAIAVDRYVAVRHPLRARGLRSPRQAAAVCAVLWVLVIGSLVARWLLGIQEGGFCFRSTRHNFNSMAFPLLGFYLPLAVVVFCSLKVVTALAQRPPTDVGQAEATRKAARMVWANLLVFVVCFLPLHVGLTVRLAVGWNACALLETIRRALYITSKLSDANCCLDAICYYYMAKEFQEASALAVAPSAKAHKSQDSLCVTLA
Assay: inhibition of zaprinast-stimulated GPR35 beta-arrestin translocation – imaging, U2OS, beta-arrestin-GFP, zaprinast agonist, primary screen (AID 2058)
Conditions: zaprinast antagonism, at 10 µM
The whole screen tested about 290,000 compounds, of which about 150 (0.052%) were called active.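 Rule for the calls: active = inhibition of at least 50% with at least 30 cells and total cytoplasm GFP at most 10,000,000; inconclusive = under 30 cells or total GFP of 10,000,000 plus; inactive = the rest.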 The entries come from a sample that favours actives as a whole. Entries with a potency or affinity are not part of this list.
Output constraint: value belongs to t for active, f for inactive

Answered cases to consult:
* CSc1nc2ccccc2cc1/C=C(\C#N)c1cccc(Cl)c1 | f
* CSc1nc2ccccc2cc1/C=C(\C#N)c1cccc(C)c1 | t
* CCCn1c(=O)[nH]c(=O)c2c1nc(-c1ccc(C(F)(F)F)cc1)n2CCOC | f
* O=C(CCS(=O)(=O)c1ccc(Br)cc1)NCCc1ccccc1 | f
* COc1cccc(NC(=O)NNC(=O)CCc2ccc(O)c(O)c2)c1 | f
* Cc1ccc(OCCC(=O)NCCc2ccc(S(N)(=O)=O)cc2)cc1 | f
* NS(=O)(=O)c1ccc(CCNC(=O)CCCOc2ccccc2)cc1 | f
* CSc1nc2ccccc2cc1/C=C(\C#N)c1ccccc1 | f
* COc1cc(/C=C2\C(=N)N3N=C(S(C)(=O)=O)SC3=NC2=O)cc(OC)c1OCCOc1ccccc1C | f
* COc1ccccc1N1CCN(S(=O)(=O)c2ccc(Cl)s2)CC1 | f

[in] Assay result, entry "Cc1ccc(CNC(=S)NC2CCCCC2)cc1" — outcome?
[out] f

###

Target: G-protein coupled receptor 35 (Homo sapiens) (UniProt Q9HC97)
Assay: inhibition of zaprinast-stimulated GPR35 beta-arrestin translocation – imaging, U2OS, beta-arrestin-GFP, zaprinast agonist, primary screen (AID 2058)
Conditions: zaprinast antagonism, at 10 µM, stronger effect = higher value
The whole screen tested about 290,000 compounds, of which about 150 (0.052%) were called active. The sample as a whole holds a higher share of actives than the screen did. Results with a measured potency or affinity are listed apart.
We begin with a simple list: items and their reported inhibition.

Would you please look over these solved cases?
* Cc1ccccc1C(=O)N1CCCN(C(=O)c2ccccc2C)CC1 | -12.2% (inactive)
* COc1cc(/C=N/O)ccc1OCc1ccccc1Cl | -5.4% (inactive)
* COC(=O)CN1C(=O)[C@H]2[C@@H](c3ccc(C)o3)N3C(=O)CN(CC4CC4)C(=O)[C@@]3(Cc3ccccc3)[C@H]2C1=O | 5.1% (inactive)
* Cc1ccccc1N1CCN(C2CCCN(C(=O)c3ccc(Cl)s3)C2)CC1 (stereo not given) | 0.1% (inactive)
* Nc1ccc(S(=O)(=O)NC(Cc2ccccc2)C(=O)O)cc1 (stereo not given) | -10.2% (inactive)
* CCN1CCN(C(=O)c2ccccc2NC(=O)c2ccc(Cl)cc2)CC1 | 1% (inactive)

Field: next compound
Short answer for "Cc1oc(-c2ccccc2F)nc1CN1CCC(C(=O)NC2CC2)CC1" : inhibition was -1.6% (inactive)
